# Test system: hPEPT1
# assayInfo: Drug uptake in human HeLa cells expressing hPEPT1 after 60 mins relative ro control
# Assay type: ADME, cell-based
valueKind: uptake ratio at 1 h
Give bare numbers.

>>> assayvalue("N=C(N)Nc1cccc(CO)c1 [[3-(hydroxymethyl)phenyl]guanidine]")
1.4

Pending molecule:
I have this molecule here, NC(N)=Nc1cccc(COC(=O)[C@@H](N)Cc2ccccc2)c1 , and I need its recorded uptake ratio at 1 h. 8.8

* * *

# targetUnderTest: UniProt:Q86WA6
# Sequence (Q86WA6 whole entry): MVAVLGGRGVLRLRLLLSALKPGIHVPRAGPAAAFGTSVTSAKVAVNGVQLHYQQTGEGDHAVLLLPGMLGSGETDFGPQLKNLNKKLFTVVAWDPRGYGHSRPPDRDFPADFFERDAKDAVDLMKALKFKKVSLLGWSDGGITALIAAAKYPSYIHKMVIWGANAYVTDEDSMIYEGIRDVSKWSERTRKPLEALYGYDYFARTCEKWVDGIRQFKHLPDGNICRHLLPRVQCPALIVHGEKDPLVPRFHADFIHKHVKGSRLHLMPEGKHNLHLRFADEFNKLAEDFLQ
# assayInfo: Ratio of Kcat to Km of human recombinant VACVase assessed as hydrolysis
valueKind: Ratio

>>> assayvalue("CC[C@H](C)[C@H](N)C(=O)OCc1cccc(NC(=N)N)c1")
"1580 mM⁻¹ s⁻¹"

Batch request: Ratio per item, same order as input.
1. CC(C)[C@H](N)C(=O)OCCOCn1cnc2c(=O)nc(N)[nH]c21
2. N=C(N)Nc1cccc(COC(=O)[C@@H](N)Cc2ccccc2)c1
3. CC(C)[C@H](N)C(=O)OCc1cccc(NC(=N)N)c1

1. 850 mM⁻¹ s⁻¹
2. 1660 mM⁻¹ s⁻¹
3. 3370 mM⁻¹ s⁻¹

* * *

Exercise: state measured t1/2 for each of the compounds provided.
# System: Caco-2
# assayInfo: Stability in human Caco-2 cell homogenate assessed as half life of hydrolysis
# Type: ADME, Colon
Give bare numbers, in min.

The following compounds have reported results that may help.
>>> assayvalue("CC[C@H](C)[C@H](N)C(=O)OCc1cccc(N=C(N)N)c1")
59.6
>>> assayvalue("CC(C)[C@H](N)C(=O)OCCOCn1cnc2c(=O)[nH]c(N)nc21")
31.3

Pending compound:
I have this compound here, CC(C)[C@H](N)C(=O)OCc1cccc(NC(=N)N)c1 , and I need its recorded t1/2. 4.8

* * *

# Test system: HeLa
# assayInfo: Drug uptake in human HeLa cells expressing hPEPT1 after 60 mins
# Type: ADME, cell-based
# experimentalSetup: 1 h
valueKind: Drug uptake

The following compounds have reported results that may help.
>>> assayvalue("CC[C@H](C)[C@H](N)C(=O)OCc1cccc(N=C(N)N)c1")
"27.7 nmol/mg"
>>> assayvalue("N=C(N)Nc1cccc(CO)c1 [[3-(hydroxymethyl)phenyl]guanidine]")
"5.5 nmol/mg"
>>> assayvalue("CC(C)[C@H](N)C(=O)OCCOCn1cnc2c(=O)[nH]c(N)nc21 [VALACYCLOVIR]")
"5.5 nmol/mg"
>>> assayvalue("CC(C)[C@H](N)C(=O)OCc1cccc(NC(=N)N)c1")
"50.2 nmol/mg"

Pending compound:
I have this compound here, NC(N)=Nc1cccc(COC(=O)[C@@H](N)Cc2ccccc2)c1 , and I need its recorded Drug uptake. 14.8 nmol/mg

* * *

# Tested on: HeLa
# assayInfo: Drug uptake in human HeLa cells after 60 mins
# Type: ADME, cell-based
# experimentalSetup: 1 h
valueKind: Drug uptake (nmol/mg)
One number for each entry, in nmol/mg.

>>> assayvalue("N=C(N)Nc1cccc(CO)c1 [[3-(hydroxymethyl)phenyl]guanidine]")
3.8

Pending compound:
I have this compound here, NC(N)=Nc1cccc(COC(=O)[C@@H](N)Cc2ccccc2)c1 , and I need its recorded Drug uptake. 1.7

* * *

# assayInfo: Stability in human HeLa cells after 60 mins
# Assay type: ADME, cell-based
# experimentalSetup: read-out: Stability
valueKind: remaining at 1 h
# include the unit after the value

The following compounds have reported results that may help.
>>> assayvalue("CC(C)[C@H](N)C(=O)OCCOCn1cnc2c(=O)[nH]c(N)nc21 [VALACYCLOVIR]")
"99.2%"
>>> assayvalue("CC[C@H](C)[C@H](N)C(=O)OCc1cccc(N=C(N)N)c1")
"99%"

Batch request: remaining at 1 h per item, same order as input.
1. CC(C)[C@H](N)C(=O)OCc1cccc(NC(=N)N)c1
2. NC(N)=Nc1cccc(COC(=O)[C@@H](N)Cc2ccccc2)c1

1: 98%; 2: 87.2%

* * *

# targetUnderTest: Solute carrier family 15 member 1 (Homo sapiens)
# Sequence (P46059 whole entry): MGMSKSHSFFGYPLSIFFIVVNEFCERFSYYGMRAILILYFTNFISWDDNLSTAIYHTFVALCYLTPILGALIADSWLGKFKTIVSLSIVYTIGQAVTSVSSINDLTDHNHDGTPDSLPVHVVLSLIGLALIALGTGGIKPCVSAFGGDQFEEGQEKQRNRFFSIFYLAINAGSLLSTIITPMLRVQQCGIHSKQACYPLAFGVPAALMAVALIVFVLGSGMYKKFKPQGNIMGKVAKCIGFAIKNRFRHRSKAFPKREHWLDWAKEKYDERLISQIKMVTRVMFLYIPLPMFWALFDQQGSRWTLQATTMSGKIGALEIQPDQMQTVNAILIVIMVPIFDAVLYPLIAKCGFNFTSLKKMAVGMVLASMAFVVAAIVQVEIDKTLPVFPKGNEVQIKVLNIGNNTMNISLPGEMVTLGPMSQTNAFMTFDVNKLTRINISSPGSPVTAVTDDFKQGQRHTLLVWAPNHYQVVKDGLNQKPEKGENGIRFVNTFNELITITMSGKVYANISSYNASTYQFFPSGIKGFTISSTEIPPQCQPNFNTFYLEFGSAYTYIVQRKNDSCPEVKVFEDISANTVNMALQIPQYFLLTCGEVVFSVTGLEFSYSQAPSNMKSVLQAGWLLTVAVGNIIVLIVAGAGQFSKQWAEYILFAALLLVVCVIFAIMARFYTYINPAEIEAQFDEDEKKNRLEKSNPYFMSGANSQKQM
# assayInfo: Inhibition of human PEPT1-mediated [3H]Gly-Sar uptake in human HeLa cells
Exercise: state measured pIC50 for each of the molecules provided.
Answers are plain numbers, as −log10 of the molar value.

The following molecules have reported results that may help.
>>> assayvalue("CC[C@H](C)[C@H](N)C(=O)OCc1cccc(N=C(N)N)c1")
3.20
>>> assayvalue("NC(N)=Nc1cccc(COC(=O)[C@@H](N)Cc2ccccc2)c1")
2.63
>>> assayvalue("CC(C)[C@H](N)C(=O)OCc1cccc(NC(=N)N)c1")
3.19

Pending molecule:
I have this molecule here, CC(C)[C@H](N)C(=O)OCCOCn1cnc2c(=O)[nH]c(N)nc21 , and I need its recorded pIC50. 2.85

* * *

# System: HeLa
# assayInfo: Drug uptake in human HeLa cells after 60 mins
# Type: ADME, cell-based
# experimentalSetup: 1 h
valueKind: Drug uptake

>>> assayvalue("CC[C@H](C)[C@H](N)C(=O)OCc1cccc(N=C(N)N)c1")
"< 2 nmol/mg"
>>> assayvalue("CC(C)[C@H](N)C(=O)OCCOCn1cnc2c(=O)[nH]c(N)nc21")
"< 0.2 nmol/mg"

I have this compound here, CC(C)[C@H](N)C(=O)OCc1cccc(NC(=N)N)c1 , and I need its recorded Drug uptake. < 2 nmol/mg
